src = patent US9686985B2

system: Sphaerotheca fuliginea; assay: Example B: in vivo preventive test on Sphaerotheca fuliginea (powdery mildew on cucurbits); details: table B; 500 ppm; gherkin plants; grading 12 days after contamination
Each record here notes measured Efficacy.
Record the value in %, omitting the unit from your answer.

See these solved cases before continuing.
Fill blank: measured Efficacy of the compound Cn1nc(C(F)F)c(C(=O)N(CC2CCOc3ccccc32)C2CC2)c1F (stereo not drawn) is ____.
100

Same for Cn1nc(C(F)F)c(C(=O)N(CC2CCc3ccccc32)C2CC2)c1F (stereo not drawn)
100

Same for Cn1nc(C(F)F)c(C(=O)N(CC2CCc3ccc(C(F)(F)F)cc32)C2CC2)c1Cl (stereo not drawn)
100

Item: Cn1nc(C(F)F)c(C(=O)N(CC2CSCc3ccccc32)C2CC2)c1F (stereo not drawn)
90

Entry Cn1nc(C(F)F)c(C(=O)N(CC2CCc3c(F)cccc32)C2CC2)c1Cl (stereo not drawn) please
100

CC(C1CCCc2ccccc21)N(C(=O)c1c(C(F)F)nn(C)c1F)C1CC1 (stereo not drawn) , same question.
100

Continuing:
Entry under review: Cn1nc(C(F)F)c(C(=S)N(CC2CCc3c(Cl)cc(Cl)cc32)C2CC2)c1F (stereo not drawn) . Reported Efficacy?
100

Again, but for Cn1nc(C(F)F)c(C(=O)N(CC2CCc3c(Cl)cc(Cl)cc32)C2CC2)c1F (stereo not drawn)
100

Next entry: Cn1nc(C(F)F)c(C(=O)N(CC2CCc3cc(Cl)ccc32)C2CC2)c1Cl (stereo not drawn)
78

* * *

experiment: log P by HPLC on reversed-phase column (EEC Directive 79/831 Annex V.A8); format: physicochemical
Measure name: chromatographic logP
A bare number is all that is needed in reply.

Recorded results for 6 compounds are shown here.
What value of chromatographic logP has been recorded for this entry: Clc1cc(Cl)c2c(c1)C(CNC1CC1)CC2 (stereo not shown) [IIf.9]
1.38

Now consider Clc1ccc2c(c1)CCC2CNC1CC1 (stereo not shown) [IIf.6] .
1.11

Moving on to the next compound: COc1cccc2c1CCCC2CNC1CC1 (stereo not shown) [IIf.14]
1.28

And what about the compound Cc1cc(C)c2c(c1)C(CNC1CC1)CCC2 (stereo not shown) [IIf.13] ?
1.75

Consider next the compound Clc1cccc2c1C(CNC1CC1)CC2 (stereo not shown) [IIf.7] in the same way.
0.95

Next compound: CC1(CNC2CC2)CCCc2ccccc21 (stereo not shown) [IIf.11]
1.1

Moving on to the next compound.
Suppose we examine the compound Cc1ccc2c(c1)CCC2CNC1CC1 (stereo not shown) [IIf.3] ; what chromatographic logP value has been reported?
0.95

* * *

assay: log P by HPLC on reversed-phase column (EEC Directive 79/831 Annex V.A8); assay type: physicochemical; conditions: reversed-phase C18 HPLC column; Table 2 (amines IIf); HPLC C18, 40° C., 0.1% aqueous formic acid and acetonitrile gradient; read-out: logP
Measure name: chromatographic logP

Worked examples follow.
Quick one: chromatographic logP for Clc1ccc2c(c1)C(CNC1CC1)CCS2 (stereo not drawn) ?
1.26

Follow-up item: Fc1ccc2c(c1)C(CNC1CC1)CCS2 (stereo not drawn)
1.05

Others:
Which chromatographic logP is listed for c1ccc2c(c1)CSCC2CNC1CC1 (stereo not drawn) ?
0.86

* * *

assay: log P by HPLC on reversed-phase column (EEC Directive 79/831 Annex V.A8); type: physicochemical; conditions: Table 1; HPLC C18, 40° C., 0.1% aqueous formic acid and acetonitrile gradient
Entries and their measured logP follow.

Which value of logP has been reported for Cn1nc(C(F)F)c(C(=O)N(CC2CCc3ccccc32)C2CC2)c1Cl (stereo not shown) in the records?
3.51

Queued: Cn1nc(C(F)F)c(C(=O)N(CC2CCc3c(Cl)cc(Cl)cc32)C2CC2)c1F (stereo not shown)
4.39

Now this one: Cn1nc(C(F)F)c(C(=O)N(CC2CCc3ccc(C(F)(F)F)cc32)C2CC2)c1F (stereo not shown)
3.87

Next entry: Cn1nc(C(F)F)c(C(=O)N(CC2CCc3cccc(Cl)c32)C2CC2)c1Cl (stereo not shown)
3.96

And for Cn1nc(C(F)F)c(C(=O)N(CC2CCOc3ccccc32)C2CC2)c1F (stereo not shown) ?
3.00
